test system: RIVA; assay: growth inhibition by drug alone (1 - RLU/untreated control) (fraction); higher = stronger inhibition; details: 10 nM; time (day): 3; 177Lu-lilotomab satetraxetan 0 ug/ml
Structures can show the parent of a compound that is named as a salt.

{"compound": "CC(C)C[C@H](NC(=O)[C@@H](O)[C@H](N)Cc1ccccc1)C(=O)O [Ubenimex (Bestatin)]", "system-under-test": "RIVA", "growth inhibition by drug alone": 0.135}
{"compound": "CN(N=O)C(=O)N[C@@H](C=O)[C@@H](O)[C@H](O)[C@H](O)CO [Streptozotocin (Zanosar)]", "system-under-test": "RIVA", "growth inhibition by drug alone": -0.263}
{"compound": "O=C1CN2Cc3c(ccc(Cl)c3Cl)N=C2N1 [Anagrelide]", "system-under-test": "RIVA", "growth inhibition by drug alone": -0.0185}
{"compound": "N#CC(c1ccnc(NCCc2cccnc2)n1)c1nc2ccccc2s1 (stereo not drawn) [JNK Inhibitor V]", "system-under-test": "RIVA", "growth inhibition by drug alone": -0.285}
{"compound": "COc1cc(C(=O)NC(=S)Nc2cccc(NC(=O)c3ccccc3)c2)cc(OC)c1OC", "system-under-test": "RIVA", "growth inhibition by drug alone": 0.0482}
{"compound": "COc1cccc2c1C(=O)c1c(O)c3c(c(O)c1C2=O)C[C@@](O)(C(=O)CO)C[C@@H]3O[C@H]1C[C@H](N)[C@@H](O)[C@H](C)O1 [Epirubicin Hydrochloride]", "system-under-test": "RIVA", "growth inhibition by drug alone": -0.0808}
{"compound": "CN(Cc1cnc2nc(N)nc(N)c2n1)c1ccc(C(=O)N[C@@H](CCC(=O)O)C(=O)O)cc1 [Abitrexate (Methotrexate)]", "system-under-test": "RIVA", "growth inhibition by drug alone": -0.206}
{"compound": "NC(=O)c1ccc(-c2nc(-c3ccccn3)c(-c3ccc4c(c3)OCO4)[nH]2)cc1", "system-under-test": "RIVA", "growth inhibition by drug alone": 0.151}
